system_under_test: T1, chimeric CD45RB (full length human CD45RB with the macaque RB exon) transiently expressed in CHO cells (human; macaque, UniProt P08575-9 26-33; P08575-9 81-1192)
T1 construct: whole chimeric protein on CHO cells; also called Macaque CD45RB CHO
T1 sequence: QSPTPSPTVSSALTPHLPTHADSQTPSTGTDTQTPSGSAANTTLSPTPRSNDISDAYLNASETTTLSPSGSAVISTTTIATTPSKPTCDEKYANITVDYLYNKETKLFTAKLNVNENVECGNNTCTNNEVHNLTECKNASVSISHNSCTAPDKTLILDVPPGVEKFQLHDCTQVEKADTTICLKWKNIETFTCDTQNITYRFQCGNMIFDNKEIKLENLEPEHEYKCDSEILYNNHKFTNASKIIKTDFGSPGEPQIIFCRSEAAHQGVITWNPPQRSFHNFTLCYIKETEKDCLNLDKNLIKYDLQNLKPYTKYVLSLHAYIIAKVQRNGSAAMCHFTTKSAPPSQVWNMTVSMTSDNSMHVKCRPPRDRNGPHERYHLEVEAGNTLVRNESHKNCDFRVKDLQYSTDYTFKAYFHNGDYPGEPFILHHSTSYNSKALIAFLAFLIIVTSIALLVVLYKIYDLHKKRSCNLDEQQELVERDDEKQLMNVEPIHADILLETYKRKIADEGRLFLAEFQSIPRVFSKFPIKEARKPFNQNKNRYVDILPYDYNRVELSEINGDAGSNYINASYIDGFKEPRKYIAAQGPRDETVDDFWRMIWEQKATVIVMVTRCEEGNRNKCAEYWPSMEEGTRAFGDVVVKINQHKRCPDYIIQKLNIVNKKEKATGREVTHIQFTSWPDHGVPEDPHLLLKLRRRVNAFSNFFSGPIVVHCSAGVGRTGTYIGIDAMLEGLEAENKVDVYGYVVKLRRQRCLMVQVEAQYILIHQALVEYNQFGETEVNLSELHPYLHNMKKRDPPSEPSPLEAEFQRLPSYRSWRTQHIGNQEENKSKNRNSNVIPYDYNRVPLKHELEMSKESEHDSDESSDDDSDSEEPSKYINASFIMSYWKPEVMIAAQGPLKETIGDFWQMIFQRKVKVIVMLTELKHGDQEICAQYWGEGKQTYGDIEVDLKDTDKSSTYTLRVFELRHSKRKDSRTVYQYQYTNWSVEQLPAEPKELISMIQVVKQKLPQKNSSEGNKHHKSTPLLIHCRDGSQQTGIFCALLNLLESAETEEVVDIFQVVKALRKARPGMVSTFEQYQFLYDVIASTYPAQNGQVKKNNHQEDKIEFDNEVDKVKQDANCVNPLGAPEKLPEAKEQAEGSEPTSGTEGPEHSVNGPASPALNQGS
procedure_summary: transiently transfected CHO cells

binder: AB-CD45RB-XG2-493 (antibody, human IgG2, V domains shown, recombinant human IgG2 kappa; also called sc493) VH: QVQLVESGGGVVQPGRSLRVSCAASGFTFSNYGMHWVRQAPGKGLEWVAVIWYDGSKKFYADSVKGRFTISRDNSQNTLSLQMSSLRAEDTAVYYCARGGGDFDFWGQGTLVTVSS VL: KIVMTQSPVTLSVSPGERATLSCRACQSVSGSYLAWYQQRPGQAPRLLIYGASTRATGIPARFSGSGSGTEFTLTISSLQSEDFAVYYCQQYGKWPPLTFGGGTKVEIK
binding result: no binding
--
binder: AB-CD45RB-XG2-446 (antibody, human IgG2, V domains shown, recombinant human IgG2 kappa; also called sc446) VH: QVQLVESGGGVVQPGKSLRLSCAASGFTFRNYGMHWVRQAPGKGLEWVAVIWYDGSKKFYADSVKGRFTISRDNSKNTLNLQMNSLRAEDTAVYYCVRGGGDFDYWGQGTLVTVSS VL: EIVMTQSPATLSVSLGERATLSCRASQNISGNYLAWYQQRPGQAPRRLIYSASSRATGIPDRFSGSGSGTEFTLTISSLQSEDFAVYYCQQYNNWPPLTFGGGTKVEMK
binding result: no binding
--
binder: AB-CD45RB-XG2-525 (antibody, human IgG2, V domains shown, recombinant human IgG2 kappa; also called sc525) VH: QVQLVESGGGVVQPGRSLRVSCAASGFTFSNYGMHWVRQAPGKGLEWVAVIWYDGSKKFYADSVKGRFTISRDNSQNTLSLQMSSLRAEDTAVYYCARGGGDFDFWGQGTLVTVSS VL: KIVMTQSPATLSVSPGERATLSCRASQSLSGSYLAWYQQRPGQAPRLLIYGASTRATGIPARFSGSGSGTEFTLTISSLQSEDFAVYYCQQYNKWPPLTFGGGTKVEIK
binding result: no binding
